All values here come from patent US20220332795A1.

Each entry below carries its reported Apical domain, RLU.
# measured_on: T1, CD71 apical domain (UniProt P02786 189-383, limits assumed)
# T1 construct: domain: Apical domain
# test_method_notes: solution ELISA
Expressed in RLU, but write only the number.

Below: 2 binders and their reported Apical domain, RLU.
**Query** # Apical domain, RLU lookup, item SEQ ID NO 132 (designed binder, FN3 domain) MLPAPKNLVVSRVTEDSARLSWTAPDAAFDSFFIPYAEPSPTGEAIVLTVPGSERSYDLTGLKPGTEYSVLIHGVKGGLLSSPLSAHFTT
**Result** 7.43e+06

**Query** // next record SEQ ID NO 154 (designed binder, FN3 domain) MLPAPKNLVVSRVTEDSARLSWTAPDAAFDSFYIAYAEPRPDGEAIGLWVPGSERSYDLTGLKPGTEYSVLIHGVKGGLLSSPLIAHFTT
**Result** 5.54e+06

---
**Query** # Apical domain, RLU lookup, item SEQ ID NO 119 (designed binder, FN3 domain) MLPAPKNLVVSRVTEDSARLSWTAPDAAFDSFYIAYAEPRPDGEAINLDVPGSERSYDLTGLKPGTEYSVLIHGVKGGLLSSPLVAEFTT
**Result** 4.93e+06

**Query** // next record SEQ ID NO 188 (designed binder, FN3 domain) MLPAPKNLVVSRVTEDSARLSWTAPDAAFDSFYIAYAEPRPDGEAIGLGVPGSERSYDLTGLKPGTEYSVLIHGVKGGLLSSPLDASFTT
**Result** 5.24e+06

**Query** // next record SEQ ID NO 131 (designed binder, FN3 domain) MLPAPKNLVVSRVTEDSARLSWTAPDAAFDSFYIAYAEPRPDGEAIHLWVPGSERSYDLTGLKPGTEYSVLIHGVKGGLLSSPLIAHFTT
**Result** 5.28e+06

**Query** // next record SEQ ID NO 162 (designed binder, FN3 domain) MLPAPKNLVVSRVTEDSARLSWTAPDAAFDSFYIAYAEPRPDGEAIKLEVPGSERSYDLTGLKPGTEYSVLIHGVKGGLLSSPLAIFTT
**Result** 93100

**Query** // next record SEQ ID NO 149 (designed binder, FN3 domain) MLPAPKNLVVSRVTEDSARLSWTAPDAAFDSFYIAYAEPRPDGEAIQLWVPGSERSYDLTGLKPGTEYSVLIHGVKGGLLSSPLSAIFTT
**Result** 6.16e+06

**Query** // next record SEQ ID NO 183 (designed binder, FN3 domain) MLPAPKNLVVSRVTEDSARLSWTAPDAAFDSFYIAYAEPRPDGEAILLDVPGSERSYDLTGLKPGTEYSVLIHGVKGGFPSMPLSAIFTT
**Result** 6.95e+06

**Query** // next record SEQ ID NO 174 (designed binder, FN3 domain) MLPAPKNLVVSRVTEDSARLSWTAPDAAFDSFFIGYLEPQPPGEAIQLWVPGSERSYDLTGLKPGTEYNVTIQGVKGGFPSMPLSAIFTT
**Result** 4.83e+06
